Taken from patent US10130714B2.

This section presents compounds with their documented IC50 values.
- SYSTEM_TESTED: neuraminidase of influenza A/WSN/1933 (H1N1) virus (Influenza A virus, UniProt P03470)
- Sequence (P03470 whole entry, looked up): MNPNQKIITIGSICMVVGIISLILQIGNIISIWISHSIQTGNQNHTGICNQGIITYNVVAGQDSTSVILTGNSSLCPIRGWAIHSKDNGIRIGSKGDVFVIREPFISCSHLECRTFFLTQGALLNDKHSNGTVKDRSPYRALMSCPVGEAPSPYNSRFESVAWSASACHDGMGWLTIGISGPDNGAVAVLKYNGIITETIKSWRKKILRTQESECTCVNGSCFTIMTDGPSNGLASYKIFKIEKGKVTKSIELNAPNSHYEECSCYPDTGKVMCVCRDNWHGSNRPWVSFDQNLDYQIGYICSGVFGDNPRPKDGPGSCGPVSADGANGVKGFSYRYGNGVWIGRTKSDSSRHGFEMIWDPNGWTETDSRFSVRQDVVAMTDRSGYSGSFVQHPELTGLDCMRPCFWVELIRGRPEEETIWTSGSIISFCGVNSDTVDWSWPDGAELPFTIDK
- MEASUREMENT_PROTOCOL: biochemical
- Assay type: biochemical

Recorded IC50, per entry:
>>> result("CC(=O)NC1C(NC(=N)N)C=C(C(=O)O)OC1C(OC(=O)NCCCOC(=O)c1ccc2ccccc2c1O)C(O)CO (centres unmarked)")
"0.7 to 3.6 nM"
>>> result("CC(=O)NC1C(NC(=N)NC(=O)C(C)c2ccc(CC(C)C)cc2)C=C(C(=O)O)OC1C(O)C(O)CO (centres unmarked)")
"44 to 81 nM"
>>> result("CC(=O)NC1C(NC(=N)N)C=C(C(=O)OCCCOC(=O)c2cc(N)ccc2O)OC1C(O)C(O)CO (centres unmarked)")
"996 nM"
>>> result("CC(=O)NC1C(NC(=N)N)C=C(C(=O)O)OC1C(OC(=O)NCCCNC(=O)C=Cc1ccc(O)c(O)c1)C(O)CO (centres unmarked) [ZA-7-CA-amide (7)]")
"41.3 to 60.3 nM"
>>> result("CC(=O)NC1C(NC(=N)N)C=C(C(=O)O)OC1C(OC(=O)NCCCO)C(O)CO (centres unmarked)")
"11.7 to 19.8 nM"

Looking up CC(=O)NC1C(NC(=N)N)C=C(C(=O)O)OC1C(OC(=O)NCCCOC(=O)c1cc(N)ccc1O)C(O)CO (centres unmarked) , I found its IC50 recorded as 8.6 to 56.3 nM

Looking up CC(=O)NC1C(NC(=N)N)C=C(C(=O)O)OC1C(OC(=O)NCCCOC(=O)C=Cc1ccc2c(c1)OCO2)C(O)CO (centres unmarked) , I found its IC50 recorded as 5.4 to 7.9 nM

Looking up CC(=O)NC1C(NC(=N)N)C=C(C(=O)O)OC1C(OC(=O)NCCCOC(=O)C=Cc1ccc(O)c(O)c1)C(O)CO (centres unmarked) , I found its IC50 recorded as 2.9 to 7.4 nM
